Target: Neuronal acetylcholine receptor subunit alpha-7 (Homo sapiens)
Sequence (P36544 whole entry): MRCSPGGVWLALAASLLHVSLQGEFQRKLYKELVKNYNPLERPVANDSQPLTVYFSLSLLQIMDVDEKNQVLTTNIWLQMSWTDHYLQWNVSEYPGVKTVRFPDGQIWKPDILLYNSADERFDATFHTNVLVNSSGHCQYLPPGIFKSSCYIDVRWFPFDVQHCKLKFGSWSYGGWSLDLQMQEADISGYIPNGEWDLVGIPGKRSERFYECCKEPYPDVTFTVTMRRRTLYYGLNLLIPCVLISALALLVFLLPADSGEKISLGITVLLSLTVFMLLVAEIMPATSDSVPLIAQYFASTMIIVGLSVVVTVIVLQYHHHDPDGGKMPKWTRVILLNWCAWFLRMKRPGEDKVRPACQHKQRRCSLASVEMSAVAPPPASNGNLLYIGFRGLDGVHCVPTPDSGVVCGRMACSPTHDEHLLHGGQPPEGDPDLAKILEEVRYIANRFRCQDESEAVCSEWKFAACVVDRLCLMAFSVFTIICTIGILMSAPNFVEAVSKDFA
Experiment: Positive allosteric modulator activity at human alpha7 nAChR expressed in Flp-In-HEK293 cells co-expressing RIC-3 assessed as potentiation of PNU282987-induced calcium influx measured after 10 mins by FLIPR assay
Format: cell-based, Flp-In-293
Details: read-out: EC50
PARAMETER MEASURED: pEC50
Remember, pEC50 is on a log scale: it is -log10 of the molar concentration.

The cases that follow already have their pEC50 on record.
Cc1ccc(CN2CCN(C(=O)C(=O)Nc3cc(F)c4[nH]ccc4c3)CC2)cc1 = 6.96
Cc1ccc(OCC2CCN(C(=O)NCc3ccc4c(ccn4C)c3)C2)cc1 (stereo unspecified) = 6.55
Cn1nc(-c2ccc3c(ccn3C)c2)cc1C(=O)N1CCN(Cc2ccc(Cl)cc2)CC1 = 5.60
Cc1ccc(OCC2CN(C(=O)C(=O)Nc3ccc4c(ccn4C)c3)C2)cc1 = 5.52
Cc1ccc(OC2CCN(C(=O)C(=O)Nc3ccc4c(ccn4C)c3)CC2)cc1 = 6.92
Cc1ccc(CN2CCC(C(=O)C(=O)Nc3ccc4c(ccn4C)c3)CC2)cc1 = 6.22

Lab note: next compound to report on.
Problem: Look up and report measured pEC50 for this entry: Cc1ccc(CC2CCN(C(=O)C(=O)Nc3ccc4[nH]ccc4c3)CC2)cc1
Solution: 6.04

---

Assay: Plasma concentration in NMRI mouse at 1 mg/kg, ip measured after 1 hr by HPLC-MS/MS analysis
Assay type: ADME, organism-based
Documented concentration at 1 h across a set of compounds
Provide only the numeric value, understood in nM.

Solved entries:
Cc1ccc(CN2CCN(C(=O)C(=O)Nc3ccc4c(ccn4C)c3)CC2)cc1 = 21
Cc1ccc(OC2CCN(C(=O)C(=O)Nc3ccc4c(ccn4C)c3)CC2)cc1 = 63
O=C(NCc1ccc2[nH]ccc2c1)N1CC(COc2ccc(C(F)(F)F)cc2)C1 = 647

Moving on to another compound below.
Problem: Given the compound Cc1ccc(Oc2ccc(C(=O)C(=O)Nc3ccc4c(ccn4C)c3)cn2)cc1 , write its reported concentration at 1 h.
Solution: 104

---

Attribute: Kp at 35 min
Experiment: Ratio of drug level in Wistar rat brain to plasma at 10 mg/kg, ip measured after 35 mins by HPLC-MS/MS analysis
Format: ADME, organism-based
Details: read-out: BPR
# output: bare number, no unit

O=C(NCc1ccc2[nH]ccc2c1)N1CC(COc2ccc(C(F)(F)F)cc2)C1 = 1.38

Note: attention shifts to another entry.
Problem: Consider the compound Cc1ccc(CN2CCN(C(=O)C(=O)Nc3ccc4c(ccn4C)c3)CC2)cc1 . State its measured Kp at 35 min.
Solution: 4.01

---

Experiment: Ratio of drug level in NMRI mouse brain to plasma at 3 mg/kg, ip measured after 1 hr by HPLC-MS/MS analysis
Format: ADME, organism-based
Details: read-out: BPR
PARAMETER MEASURED: Kp at 1 h
Lab note: write the figure by itself, no unit.

O=C(NCc1ccc2[nH]ccc2c1)N1CC(COc2ccc(C(F)(F)F)cc2)C1 = 0.99
Cc1ccc(CN2CCN(C(=O)C(=O)Nc3ccc4c(ccn4C)c3)CC2)cc1 = 1.68

Problem: # return recorded Kp at 1 h for input Cc1ccc(OC2CCN(C(=O)C(=O)Nc3ccc4c(ccn4C)c3)CC2)cc1
Solution: 1.74

Problem: Retrieve Kp at 1 h measured for Cc1ccc(Oc2ccc(C(=O)C(=O)Nc3ccc4c(ccn4C)c3)cn2)cc1 and print it.
Solution: 1.17

---

Assay: Kinetic solubility of compound
Type: physicochemical
Conditions: read-out: Kinetic_solubility
Category scheme (solubility kinetic): 1 = under 10 µM, 2 = from 10 µM up to 20 µM, 3 = 20 µM and over

Cc1ccc(CN2CCN(C(=O)C(=O)Nc3ccc4c(c3)c(C)cn4C)CC2)cc1 = 1
Cn1ccc2cc(NC(=O)C(=O)c3cnc(Oc4ccc(Cl)cc4)s3)ccc21 = 1
Cc1ccc(OC2CC3CCC(C2)N3C(=O)C(=O)Nc2ccc3[nH]ccc3c2)cc1 (stereo not given) = 1
Cc1ccc(CN2CCN(C(=O)C(=O)Nc3ccc4c(F)cn(C)c4c3)CC2)cc1 = 2
Cc1ccc(CN2CCN(C(=O)C(=O)Nc3ccc4c(c3)CCN4C)CC2)cc1 = 3

In the following, a different compound is considered.
Problem: Which band does Cc1ccc(CN2CCN(C(=O)C(=O)Nc3cnc4c(ccn4C)c3)CC2)cc1 fall in?
Solution: 3

---

Experiment: Mutagenicity in Salmonella typhimurium TA1537 in absence of rat liver S9 fraction by AMES test
Format: toxicity
Conditions: salmonella enterica subsp. enterica serovar typhimurium
PARAMETER MEASURED: Activity

Record excerpt, results attached:
Cc1ccc(CN2CCN(C(=O)C(=O)Nc3ccc4c(ccn4C)c3)CC2)cc1 = Non-Toxic
Cc1ccc(CN2CCN(C(=O)C(=O)Nc3ccc4c(c3)c(F)cn4C)CC2)cc1 = Toxic
Cc1ccc(CN2CCN(C(=O)C(=O)Nc3ccc4c(F)cn(C)c4c3)CC2)cc1 = Toxic
Cc1ccc(CN2CCN(C(=O)C(=O)Nc3cc4ccn(C)c4cc3F)CC2)cc1 = Toxic
Cc1ccc(CN2CCN(C(=O)C(=O)Nc3cc(F)c4[nH]ccc4c3)CC2)cc1 = Toxic

Problem: Provide one value: measured Activity of Cc1ccc(CN2CCN(C(=O)C(=O)Nc3ccc4c(c3)c(C)cn4C)CC2)cc1
Solution: Toxic

Problem: Quote Activity reported for Cc1ccc(CN2CCN(C(=O)C(=O)Nc3ccc4[nH]c(C)c(C)c4c3)CC2)cc1 please.
Solution: Toxic

Problem: Report Activity, nothing else, for this molecule: O=C(NCc1ccc2[nH]ccc2c1)N1CC(COc2ccc(C(F)(F)F)cc2)C1
Solution: Non-Toxic

Problem: Give me measured Activity, please, for this molecule: Cc1ccc(CN2CCN(C(=O)C(=O)Nc3ccc4c(c3)c(Cl)cn4C)CC2)cc1
Solution: Toxic

---

Assay: Efflux ratio of apparent permeability from basolateral to apical side over apical to basolateral side in vinblastine-treated human Caco-2 cells expressing P-glycoprotein at 10 uM incubated for 120 mins by HPLC analysis
Type: ADME
PARAMETER MEASURED: efflux ratio at 2 h, 10 µM
Enter a number only.

Problem: Quote efflux ratio at 2 h, 10 µM reported for Cc1ccc(CN2CCN(C(=O)C(=O)Nc3ccc4c(ccn4C)c3)CC2)cc1 please.
Solution: 0.7

---

Experiment: Ratio of drug level in NMRI mouse brain to plasma at 1 mg/kg, ip measured after 1 hr by HPLC-MS/MS analysis
Assay type: ADME, organism-based
Conditions: read-out: BPR
PARAMETER MEASURED: Kp at 1 h

Cc1ccc(OC2CCN(C(=O)C(=O)Nc3ccc4c(ccn4C)c3)CC2)cc1 = 1.95
Cc1ccc(Oc2ccc(C(=O)C(=O)Nc3ccc4c(ccn4C)c3)cn2)cc1 = 1.05
Cc1ccc(CN2CCN(C(=O)C(=O)Nc3ccc4c(ccn4C)c3)CC2)cc1 = 1.88

// next item, Kp at 1 h requested
Problem: Note down Kp at 1 h recorded for O=C(NCc1ccc2[nH]ccc2c1)N1CC(COc2ccc(C(F)(F)F)cc2)C1
Solution: 1.04

---

Assay: Plasma concentration in Wistar rat at 1 mg/kg, ip measured after 35 mins by HPLC-MS/MS analysis
Assay type: ADME, organism-based
Items are presented alongside their recorded concentration at 35 min.
State the answer as a number, implicitly in nM.

Cc1ccc(CN2CCN(C(=O)C(=O)Nc3ccc4c(ccn4C)c3)CC2)cc1 = 28

Would you kindly look at the next entry?
Problem: Read the entry O=C(NCc1ccc2[nH]ccc2c1)N1CC(COc2ccc(C(F)(F)F)cc2)C1 and write its reported concentration at 35 min.
Solution: 746

---

Assay: Ratio of drug level in NMRI mouse brain to plasma at 10 mg/kg, ip measured after 1 hr by HPLC-MS/MS analysis
Format: ADME, organism-based
Settings: read-out: BPR
PARAMETER MEASURED: Kp at 1 h

Cc1ccc(Oc2ccc(C(=O)C(=O)Nc3ccc4c(ccn4C)c3)cn2)cc1 = 1.53
O=C(NCc1ccc2[nH]ccc2c1)N1CC(COc2ccc(C(F)(F)F)cc2)C1 = 1.06
Cc1ccc(OC2CCN(C(=O)C(=O)Nc3ccc4c(ccn4C)c3)CC2)cc1 = 1.96

Please find the next molecule below.
Problem: Provide one value: measured Kp at 1 h of Cc1ccc(CN2CCN(C(=O)C(=O)Nc3ccc4c(ccn4C)c3)CC2)cc1
Solution: 1.67

---

Assay: Mutagenicity in Escherichia coli WP2 uvrA in absence of rat liver S9 fraction by AMES test
Format: toxicity
PARAMETER MEASURED: Activity

Cc1ccc(CN2CCN(C(=O)C(=O)Nc3cc(F)c4[nH]ccc4c3)CC2)cc1 = Toxic
Cc1ccc(CN2CCN(C(=O)C(=O)Nc3ccc4c(c3)c(C)cn4C)CC2)cc1 = Toxic
Cc1ccc(CN2CCN(C(=O)C(=O)Nc3cc4ccn(C)c4cc3F)CC2)cc1 = Toxic

Reference source: ChEMBL document CHEMBL4825686
